Target under test: Gal(a1-3)Gal(b1-4)GlcNAc
Measurement description: glycan array binding signal (z-score within array); higher = stronger binding
Test context: glycan notation: IUPAC condensed, linker removed
Only a selection was taken, and the strongest signals are over-represented in it overall.
As shown below, each of these binders has a reported glycan array binding signal (z-score) value.
Outcome measure: glycan array binding signal (z-score)

# Binder, Outcome measure, Reported
measured = [
    ("PA-IL (Pseudomonas aeruginosa), Q05097 (protein) MAWKGEVLANNEAGQVTSIIYNPGDVITIVAAGWASYGPTQKWGPQGDREHPDQGLICHDAFCGALVMKIGNSGTIPVNTGLFRWVAPNNVQGAITLIYNDVPGTYGNNSGSFSVNIGKDQS", "glycan array binding signal (z-score)", 5.08),
    ("Vd2LysM (Verticillium dahliae) (protein) YRRTCSHTGKGEGWYIIRRGDNFNAVAADFCTSTNVLTEWNHISTITDNMVNTKIKVPCRWNAGKQRDCLKDQKSSNGWYHIVSGDELKDIAYDFCTTSGSLAGMNGISNPDYIKANTDIVVPCSWN", "glycan array binding signal (z-score)", -0.365),
]

Reference source for all entries: the supplement of paper PMC8728848
